Target: human PAH with the R408W mutation (Homo sapiens, UniProt P00439, R408W)
Construct: expressed in transfected cells
Sequence (P00439 1-452 R408W): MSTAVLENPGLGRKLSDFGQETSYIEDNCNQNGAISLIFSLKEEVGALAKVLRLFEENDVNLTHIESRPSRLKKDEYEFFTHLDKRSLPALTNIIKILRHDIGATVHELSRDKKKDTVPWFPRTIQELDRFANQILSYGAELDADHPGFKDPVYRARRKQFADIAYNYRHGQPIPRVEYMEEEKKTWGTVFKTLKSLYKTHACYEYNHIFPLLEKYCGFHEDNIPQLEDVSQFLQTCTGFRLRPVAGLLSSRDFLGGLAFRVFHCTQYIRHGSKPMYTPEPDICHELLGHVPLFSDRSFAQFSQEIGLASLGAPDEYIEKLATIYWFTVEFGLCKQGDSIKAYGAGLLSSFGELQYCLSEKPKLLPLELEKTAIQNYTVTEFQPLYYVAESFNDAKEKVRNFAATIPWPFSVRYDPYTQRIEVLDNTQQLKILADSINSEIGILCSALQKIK
Test: Cell Based Phenylalanine Flux Assay
Settings: A375 cells expressing human R408W PAH; 24 hrs compound incubation; 13C-Tyrosine by LC-MS; average where tested multiple times; read-out: AC50
experimental_readout: AC50

[in] Respond only with AC50 recorded for CC(O)(c1nc(C(F)(F)F)c(C(=O)N2CCc3[nH]cnc3[C@H]2c2nc3ccccc3s2)o1)C1CC1 (single isomer, unassigned) [Example 1561]
[out] < 0.5 µM

[in] Respond only with AC50 recorded for O=C(c1nnc(-c2ccc(C(F)(F)F)cc2)o1)N1CCc2[nH]cnc2[C@@H]1c1nc2ccccc2s1 [Example 1767]
[out] 1 to 5 µM

[in] Respond only with AC50 recorded for CCn1cnnc1C(=O)N1CCc2[nH]cnc2[C@@H]1c1nc2ccccc2s1 [Example 2077]
[out] > 5 µM

[in] Respond only with AC50 recorded for O=C(c1nnc(-c2cnn(C3CCC3)c2)o1)N1CCc2[nH]cnc2[C@@H]1c1nc2ccccc2s1 [Example 1827]
[out] 1 to 5 µM

[in] Respond only with AC50 recorded for O=C(c1cnn2ccc(Cl)cc12)N1CCc2[nH]cnc2[C@H]1c1nc2cccc(F)c2s1 [Example 1301]
[out] < 0.5 µM

[in] Respond only with AC50 recorded for O=C(C1CCC1)N1CCc2[nH]cnc2[C@@H]1c1nc2ccccc2s1 [Example 1154]
[out] > 5 µM

[in] Respond only with AC50 recorded for CC(C)(F)c1ncc(C(=O)N2CCc3[nH]cnc3[C@H]2c2nc3ccccc3s2)s1 [Example 1463]
[out] < 0.5 µM

[in] Respond only with AC50 recorded for O=C(c1oc(C2(O)CC2)nc1C(F)F)N1CCc2[nH]cnc2[C@@H]1c1nc2c(F)cccc2s1 [Example 1996]
[out] 1 to 5 µM

[in] Respond only with AC50 recorded for O=C(c1nnc(N2CCOCC2)o1)N1CCc2[nH]cnc2[C@H]1c1nc2ccccc2s1 [Example 1585]
[out] 0.5 to 1 µM

[in] Respond only with AC50 recorded for Cc1cccc2sc([C@@H]3c4nc[nH]c4CCN3C(=O)c3cnco3)nc12 [Example 2013]
[out] 0.5 to 1 µM

[in] Respond only with AC50 recorded for O=C(c1cncs1)N1CCc2[nH]cnc2[C@H]1c1nc2c(F)cccc2s1 [Example 1217]
[out] 0.5 to 1 µM

[in] Respond only with AC50 recorded for Cc1ocnc1CC(=O)N1CCc2[nH]cnc2[C@H]1c1nc2ccccc2s1 [Example 1531]
[out] < 0.5 µM

[in] Respond only with AC50 recorded for C=Cc1ccc2c(C(=O)N3CCc4[nH]cnc4[C@H]3c3nc4ccccc4s3)cnn2c1 [Example 1231]
[out] 0.5 to 1 µM

[in] Respond only with AC50 recorded for O=C(N1CCc2[nH]cnc2[C@H]1c1nc2ccccc2s1)C1(c2cnco2)CC1 [Example 1629]
[out] 0.5 to 1 µM

Numbers sourced from patent US20250171438A1.
